The reported measurements were obtained from patent US11306092B2.

study.system: human TLR9 (Homo sapiens)
Construct: host or cells: HEK-Blue cells
Sequence (Q9NR96 26-1032): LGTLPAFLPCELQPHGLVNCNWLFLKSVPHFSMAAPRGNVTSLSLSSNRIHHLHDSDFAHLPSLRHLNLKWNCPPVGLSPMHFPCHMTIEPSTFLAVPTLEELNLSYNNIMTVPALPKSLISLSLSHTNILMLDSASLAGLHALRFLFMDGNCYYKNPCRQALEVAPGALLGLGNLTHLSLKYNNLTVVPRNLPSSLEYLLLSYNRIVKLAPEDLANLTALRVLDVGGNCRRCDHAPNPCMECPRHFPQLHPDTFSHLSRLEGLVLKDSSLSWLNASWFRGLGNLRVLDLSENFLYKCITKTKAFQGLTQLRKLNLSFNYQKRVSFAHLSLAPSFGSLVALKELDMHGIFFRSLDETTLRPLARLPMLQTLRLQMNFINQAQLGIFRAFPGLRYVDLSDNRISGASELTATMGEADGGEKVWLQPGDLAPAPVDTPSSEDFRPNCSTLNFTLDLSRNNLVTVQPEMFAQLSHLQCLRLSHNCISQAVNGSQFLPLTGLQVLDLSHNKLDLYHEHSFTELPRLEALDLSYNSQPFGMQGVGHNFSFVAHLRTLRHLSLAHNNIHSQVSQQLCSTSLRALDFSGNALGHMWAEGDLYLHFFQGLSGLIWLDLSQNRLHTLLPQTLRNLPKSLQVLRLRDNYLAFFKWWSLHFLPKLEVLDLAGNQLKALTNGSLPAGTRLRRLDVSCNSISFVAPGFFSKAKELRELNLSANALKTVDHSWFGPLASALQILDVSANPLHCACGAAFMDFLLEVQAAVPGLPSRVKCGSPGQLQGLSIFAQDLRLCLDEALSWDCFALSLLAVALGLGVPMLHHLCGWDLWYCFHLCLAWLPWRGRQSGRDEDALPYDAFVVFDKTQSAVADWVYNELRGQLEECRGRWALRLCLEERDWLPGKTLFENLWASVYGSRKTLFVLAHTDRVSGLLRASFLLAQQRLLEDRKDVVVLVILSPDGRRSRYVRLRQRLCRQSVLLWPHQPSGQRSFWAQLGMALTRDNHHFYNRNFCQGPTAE
run.description: TLR9 inhibition reporter assay (HEK-Blue SEAP reporter)
Assay type: cell-based
assay.setup: HEK-Blue cells overexpressing human TLR9; ODN2006 5 nM; 22 hour incubation
Counter-ions that a name gives are not always drawn.
experimental.readout: IC50 (µM)

compound: COc1ccc(-c2[nH]c3ccc(NC4CCC(N5CCN(CCN6CCCC6)CC5)CC4)cc3c2C(C)C)cc1OC (stereo not shown) [Example 64]
relational.operator: =
observed: 0.555

compound: COc1ccc(-c2[nH]c3ccc(NC4CCC(N5CCN(Cc6ccc(C)cc6)CC5)CC4)cc3c2C(C)C)cc1OC (stereo not shown) [Example 66]
relational.operator: =
observed: 0.583

compound: COc1ccc(-c2[nH]c3ccc(NC(=O)[C@@H]4CCCC[C@@H]4N)cc3c2C(C)C)cc1OC
relational.operator: =
observed: 1.39

compound: CNC1(CC#N)CCN(c2ccc3[nH]c(-c4ccc(OC)c(OC)c4)c(C(C)C)c3c2)CC1
relational.operator: =
observed: 6.18

compound: COCCN1CCN(C2CCC(Nc3ccc4[nH]c(-c5ccc(OC)c(OC)c5)c(C(C)C)c4c3)CC2)CC1 (stereo not shown)
relational.operator: =
observed: 0.97

compound: COc1ccc(-c2[nH]c3ccc(N4CCNCC4)cc3c2C(C)C)cc1OC [Example 126, TFA Salt]
relational.operator: =
observed: 4.74

compound: CCc1c(-c2cc(OC)nc(OC)c2)[nH]c2ccc(N3CCN(C4CCN(C(C)C)CC4)CC3)cc12
relational.operator: =
observed: 0.673

compound: CCc1c(-c2ccc(OC)c(OC)c2)[nH]c2ccc(N3CCC(C4CCNCC4)CC3)cc12
relational.operator: =
observed: 0.648

compound: COc1ccc(-c2[nH]c3ccc(N4CCC(N5CCN(C(C)=O)CC5)CC4)cc3c2C(C)C)cc1OC
relational.operator: =
observed: 6.56

compound: CCc1c(-c2ccc(OC)c(OC)c2)[nH]c2ccc(N3CCN(C4CCN(CC(C)C)CC4)CC3)cc12
relational.operator: =
observed: 1.54

compound: COc1ccc(-c2[nH]c3ccc(NC4CCC(N5CCN(C)CC5)CC4)cc3c2C(C)C)cc1OC (stereo not shown)
relational.operator: =
observed: 0.769

compound: C#CCCCN1CCN(c2ccc3[nH]c(-c4ccc(OC)c(OC)c4)c(C(C)C)c3c2)CC1
relational.operator: =
observed: 1.95

compound: CCc1c(-c2ccnc3[nH]ccc23)[nH]c2ccc(N3CCN(C4CCN(C(C)C)CC4)CC3)cc12
relational.operator: =
observed: 0.559

compound: CCc1c(-c2ccnc(OC)c2)[nH]c2ccc(N3CCN(CCNC)CC3)cc12
relational.operator: =
observed: 2.96

compound: COc1ccc(-c2[nH]c3ccc(NC4CCC(NCCN(C)C)CC4)cc3c2C(C)C)cc1OC (stereo not shown) [Example 33]
relational.operator: =
observed: 0.65

compound: Cc1c(-c2[nH]c3ccc(N4CCC(N(C)C)CC4)cc3c2C(C)C)cn(C)c(=O)c1Cl
relational.operator: =
observed: 3.46

compound: Cc1cc2[nH]c(-c3ccnc4[nH]ncc34)c(C(C)C)c2cc1N1CCNCC1
relational.operator: =
observed: 1.16

compound: COc1ccc(-c2[nH]c3ccc(N4CCC(=O)N(CCN(C)C)CC4)cc3c2C(C)C)cc1OC
relational.operator: =
observed: 3.46

compound: CCc1c(-c2ccc(OC)c(OC)c2)[nH]c2ccc(N3CCN(CCNC)CC3(C)C)cc12
relational.operator: =
observed: 0.425

compound: COc1ccc(-c2[nH]c3ccc(NC4CCC(N5CCN(C6CCN(C)CC6)CC5)CC4)cc3c2C(C)C)cc1OC (stereo not shown) [Example 62]
relational.operator: =
observed: 0.323

compound: COc1ccc(-c2[nH]c3ccc(NC4CCC(N5CCN(CC(C)C)CC5)CC4)cc3c2C(C)C)cc1OC (stereo not shown) [Example 51]
relational.operator: =
observed: 1.4

compound: CCc1c(-c2ccnc(OC)c2)[nH]c2ccc(N3CCN(C4CCN(C)CC4)CC3)cc12
relational.operator: =
observed: 0.839

compound: COc1ccc(-c2[nH]c3ccc(NC(=O)[C@@H](N)c4ccccc4)cc3c2C(C)C)cc1OC
relational.operator: >
observed: 50

compound: CC[C@@H](C)[C@@H](N)C(=O)Nc1ccc2[nH]c(-c3ccc(OC)c(OC)c3)c(C(C)C)c2c1
relational.operator: =
observed: 6

compound: Cc1cc(-c2[nH]c3ccc(N4CCNC4=O)cc3c2C(C)C)ccn1
relational.operator: >
observed: 50

compound: COc1ccc(-c2[nH]c3ccc(NC4CCC(NCCN5CCOCC5)CC4)cc3c2C(C)C)cc1OC (stereo not shown) [Example 47]
relational.operator: =
observed: 0.624

compound: CC(C)c1c(-c2ccnc3[nH]ncc23)[nH]c2ccc(N3CCN(C4CCN(C(C)C)CC4)CC3)cc12 [Example 167]
relational.operator: =
observed: 0.411

compound: CC(C)c1c(-c2ccnc3[nH]ccc23)[nH]c2ccc(N3CCN(C4CCN(C(C)C)CC4)CC3)cc12
relational.operator: =
observed: 0.318

compound: COc1ccc(-c2[nH]c3ccc(N4CCN(C5CCN(C)CC5)CC4)cc3c2C(C)C)cc1OC
relational.operator: =
observed: 0.935

compound: CCc1c(-c2ccc(OC)c(OC)c2)[nH]c2ccc(N3CCN(C4CCN(C(C)C)CC4)CC3)cc12
relational.operator: =
observed: 0.442

compound: CCc1c(-c2ccc(OC)c(OC)c2)[nH]c2ccc(N3CCC4(CCN(C)CC4)CC3)cc12
relational.operator: =
observed: 0.517

###

study.system: human TLR9 (Homo sapiens)
Sequence (Q9NR96 26-1032): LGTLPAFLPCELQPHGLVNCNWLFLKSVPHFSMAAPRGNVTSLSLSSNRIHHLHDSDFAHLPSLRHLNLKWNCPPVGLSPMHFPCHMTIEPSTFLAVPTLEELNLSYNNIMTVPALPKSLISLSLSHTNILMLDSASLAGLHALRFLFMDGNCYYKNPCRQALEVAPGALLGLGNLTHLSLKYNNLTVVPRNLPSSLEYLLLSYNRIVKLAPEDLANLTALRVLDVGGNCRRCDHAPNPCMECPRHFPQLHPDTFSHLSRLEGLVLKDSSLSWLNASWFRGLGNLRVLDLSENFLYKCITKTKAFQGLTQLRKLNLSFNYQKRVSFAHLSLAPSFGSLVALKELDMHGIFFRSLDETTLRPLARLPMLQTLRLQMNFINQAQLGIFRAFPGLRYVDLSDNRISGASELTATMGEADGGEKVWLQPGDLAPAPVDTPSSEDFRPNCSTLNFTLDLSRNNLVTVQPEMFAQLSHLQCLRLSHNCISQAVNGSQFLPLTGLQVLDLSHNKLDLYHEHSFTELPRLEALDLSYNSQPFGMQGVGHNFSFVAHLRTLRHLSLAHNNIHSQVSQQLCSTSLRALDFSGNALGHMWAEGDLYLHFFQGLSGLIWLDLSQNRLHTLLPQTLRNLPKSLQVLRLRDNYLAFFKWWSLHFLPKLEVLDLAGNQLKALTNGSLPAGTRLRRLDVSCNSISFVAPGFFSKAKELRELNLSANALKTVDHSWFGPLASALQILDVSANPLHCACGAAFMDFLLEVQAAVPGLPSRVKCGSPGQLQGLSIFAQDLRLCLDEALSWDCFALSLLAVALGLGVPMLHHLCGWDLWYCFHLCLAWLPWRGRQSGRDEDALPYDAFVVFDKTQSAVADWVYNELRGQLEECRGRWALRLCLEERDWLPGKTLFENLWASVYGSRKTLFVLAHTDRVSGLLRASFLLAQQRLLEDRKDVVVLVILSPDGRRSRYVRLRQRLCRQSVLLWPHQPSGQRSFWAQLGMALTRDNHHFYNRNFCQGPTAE
run.description: TLR9 inhibition reporter assay (HEK-Blue SEAP reporter)
assay.setup: HEK-Blue cells overexpressing human TLR9; ODN2006 5 nM; 22 hour incubation
pIC50: −log10 of the molar value.
Met means recorded pIC50 is 6 or above; Not met means it is below 6.

compound: CC(C)c1c(-c2ccnc3[nH]ncc23)[nH]c2ccc(NC(=O)[C@@H]3CCNC3)cc12
label.value: Not met
//
compound: Cc1cc(-c2[nH]c3ccc(N4CCC(OCCN(C)C)C4=O)cc3c2C(C)C)ccn1 (stereo not drawn)
label.value: Not met
//
compound: COc1ccc(-c2[nH]c3ccc(NC4CCC(N5CCN(c6ccncc6)CC5)CC4)cc3c2C(C)C)cc1OC (stereo not drawn) [Example 60]
label.value: Met
//
compound: CCc1c(-c2ccnc(C)c2)[nH]c2ccc(N3CCN(C4CCN(C(C)C)CC4)CC3)cc12
label.value: Met
//
compound: COc1ccc(-c2[nH]c3ccc(NC4CCC(N5CCN(C(C)(C)C)CC5)CC4)cc3c2C(C)C)cc1OC (stereo not drawn) [Example 50]
label.value: Met
//
compound: COc1ccc(-c2[nH]c3ccc(N4CCC(NCCN(C)C)CC4)cc3c2C(C)C)cc1OC
label.value: Not met
//
compound: CCc1c(-c2ccnc(C)c2)[nH]c2ccc(N3CCN(C4CCN(CC)CC4)CC3)cc12
label.value: Met
//
compound: COc1ccc(-c2[nH]c3ccc(NC4CCC(N5CCN(Cc6ccc(C)cc6)CC5)CC4)cc3c2C(C)C)cc1OC (stereo not drawn) [Example 65]
label.value: Met
//
compound: COc1ccc(-c2[nH]c3ccc(N4CCC(N5CCN(Cc6ccc(C)cc6)CC5)CC4)cc3c2C(C)C)cc1OC
label.value: Not met
//
compound: CCc1c(-c2cc(OC)nc(OC)c2)[nH]c2ccc(N3CCNCC3)cc12
label.value: Not met
